Values compiled from patent US20210277126A1.

Recorded measurements of pKd, one per entry
- test-system: T1, human CLL1 ECD (65-265) (human, UniProt Q5QGZ9 65-265)
- T1 construct: Expressed in 293-F cells and purified by IMAC; also called huCLL1; recombinant human CLL1 protein
- T1 sequence: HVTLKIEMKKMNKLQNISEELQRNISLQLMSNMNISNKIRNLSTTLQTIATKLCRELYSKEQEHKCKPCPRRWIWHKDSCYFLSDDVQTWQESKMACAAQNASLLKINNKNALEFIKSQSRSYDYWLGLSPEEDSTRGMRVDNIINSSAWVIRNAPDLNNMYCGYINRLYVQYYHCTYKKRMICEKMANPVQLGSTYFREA
- method-summary: SPR (Biacore T200), sdAb supernatant, recombinant human CLL1
pKd: −log10 of the molar value.

binder	pKd
AS83183 sdAb (VHH, Camel sdAb tested as E. coli culture supernatant; not shown: C-terminal His-tag encoded by the soluble expression vector) VHH: QVHLVESGGGSVQSGGSLRLSCAASGYAYRSYCMGWFRQAPGKVLEGVAAIESDGTTTYADSVMGRFTISQDNAKNALYLQMNSLKPEDTAMYHCAAVKGSCDSASSDTPSYWGQGTQVTVSS	9.00
AS83457 sdAb (VHH, Camel sdAb tested as E. coli culture supernatant; not shown: C-terminal His-tag encoded by the soluble expression vector) VHH: QVQLVESGGGLVQPGGSLRLSCAASGFFFSIYDMNWFRQAPGKGLEWVSGITGNGYTTAYADSVKGRFTISRDNAKNTLYLQLNSLKSEDTAMYYCAQGSNRGRGTQVTVSS	7.51
AS82494 sdAb (VHH, Camel sdAb tested as E. coli culture supernatant; not shown: C-terminal His-tag encoded by the soluble expression vector) VHH: QVQLVESGGGLVQPGGSLRLSCAASGFTFSVYDMNWFRQAPGKGLEWVSGITGNGYTTSYADSVKGRFTISRDNAKNTLYLQLNSLKSEDTAMYYCAKETNRGQGTQVTVSS	7.68
AS83010 sdAb (VHH, Camel sdAb tested as E. coli culture supernatant; not shown: C-terminal His-tag encoded by the soluble expression vector) VHH: QVQLVESGGGLVQPGGSLRLSCVASGFFFSAYDMNWFRQAPGKGLEWVSGITGNGYTTAYADSVKGRFTISRDNAKNTLYLQLNSLKSEDTAMYYCTEGDNRGQGTQVTVSS	8.08
